Exercise: state measured melting point for each of the compounds provided.

Entry under review: C1=C(/C=C/c2ccccc2)CCN(Cc2n[nH]c3ccccc23)C1 . Reported melting point?
207 to 209 °C

Ok, now COCC(C)Oc1ccc2c(c1)c(-c1cc3cccnc3[nH]1)cn2C (stereo not given)
150 to 151 °C

Param item: Cn1cnc2ccc(N/C(=C3\C(=O)Nc4ccccc43)c3ccccc3)cc21
163 to 165 °C

Can you handle CC1=C(C(=O)OCC[Si](C)(C)C)C(c2cccc([N+](=O)[O-])c2)C(C(=O)OCC[Si](C)(C)C)=C(C)N1 next?
120 °C

Now consider CC(C)c1nnn(-c2c(Cl)cccc2Cl)c1CO .
154 to 155 °C

* * *

Kindly supply the reported melting point values for the records listed here.

Which melting point reading was recorded for the molecule CNC(=O)Cc1ccc2ccn(C3CCN(CCc4ccc(F)cc4)CC3)c2c1 ?
149 to 150 °C

# iterate: Nc1ncc(-c2ccccc2)nc1Oc1ccccc1
129 to 131 °C

Try this molecule too: Clc1ccccc1/C=C/C1=CCN(Cc2c[nH]c3ncccc23)CC1
174 to 176 °C

# iterate: Cn1c(-c2ccccn2)cc(O)c(C(=N)c2ccccc2)c1=O
242 to 245 °C

How about this molecule: Cc1nccn1-c1nc(-c2ccc(Cl)cc2)c(CCCCO)o1
110 to 111 °C

Another: CCOC(=O)c1cn(NCC(=O)OC)c2cc3c(cc2c1=O)OCO3
142 to 145 °C

* * *

Can you tell me melting point for the items I'm about to list?

Which melting point is listed for COc1ccc(Oc2nnn[nH]2)cc1 ?
150 °C

Then what about the compound CCn1cc(C(=O)O)c(=O)c2ccc(-c3cccnc3)cc21 ?
268 to 269 °C

What do you have for CN(CCc1c[nH]c2ccccc12)C(=O)CCCC(=O)O ?
125 to 126 °C

Another compound to look at: NC(CCO)C1(c2ccc(Cl)cc2)CCC1 (stereo unspecified)
98 to 99 °C

Next entry: Cc1cc(C)nc(NC(=S)NS(=O)(=O)c2ccccc2-c2ccccc2)n1
203 to 204 °C

Also Cc1ccsc1C(Cc1ccccc1N)N(C)C=O (stereo unspecified) ?
111 to 112 °C

* * *

Give measured melting point for each item. Keep answers brief.

Return reported melting point; argument: CC(=O)N1CCC(Oc2ccc(N3CCCC3)cc2)CC1
69 to 70 °C

And what about the molecule Nc1nc(N)nc(C2CCN(Cc3ccccc3)CC2)n1 ?
> 260 °C

Input CN1CCN(c2cccc(N)c2)C(=O)C1
139 to 140 °C

Record: Nc1cc(-c2ccncc2)n[nH]c1=O
> 300 °C

Also CCOc1cscc1C=O , if possible.
42 to 45 °C

Now try CCCCCCCCCCCCCC(c1ccccc1)S(=O)(=O)NC(=O)Nc1c(C(C)C)cccc1C(C)C (configuration not stated) .
97 to 102 °C

Same thing, different molecule: CC(=O)N1CCC(C)(C)c2c(C)ccc(CCN3CCN(c4nsc5ccccc45)CC3)c21
132 °C

Now this one: CC(C)(N)CNC(N)=O
58 to 62 °C

Also COc1ccc2cc([C@H](C)C(=O)OCCN3CCC(C)(SN=O)CC3)ccc2c1 , if possible.
131 °C

Okay, and CCCC[C@H](NC(=O)[C@H](CC(C)C)NC(=O)c1ccc(C(F)(F)F)cc1F)C(=O)CSCc1ccco1 ?
102 to 106 °C

// query: CCOC(=O)C(=CNc1ccc(OC)c(C)n1)C(=O)OCC
109 to 110 °C

Next entry: CC12CCC3c4ccc(O)cc4C(O)C(Sc4ccc(O)cc4)C3C1CCC2O (configuration not stated)
220 to 225 °C

Field entry: Cn1ccc(-c2cccc(C=O)n2)n1
98 to 100 °C

Also, CCCCOc1ccc(S(=O)(=O)C2(C(=O)O)CCN(Cc3ccccc3)CC2)cc1 please.
144 °C

Now consider O=C1c2ccccc2C(=O)c2sc(-c3cccs3)nc21 and answer again.
> 260 °C

Can you handle Cc1nc(C)c(Cl)c(NCc2ccc(Oc3ccc4ncc([N+](=O)[O-])n4n3)c(Cl)n2)n1 next?
184 to 186 °C

Also Cc1cc2c(s1)S(=O)(=O)N(C)C(=O)C2C(=O)Nc1ccccc1 (configuration not stated) , if possible.
184 to 185 °C

Try O=S(CCCn1cnc(-c2ccc(F)cc2)c1-c1ccncc1)c1ccccc1 (configuration not stated) next.
146 to 148 °C

Same question for CNCC1Cc2cc(C(F)(F)F)cc(-c3cc(F)ccc3F)c2O1 (configuration not stated) please.
138 to 140 °C

Also Cn1cc(O)c(=O)c2ccc(Cl)cc21 , if possible.
225 to 228 °C

Note, next up: CCOC(=O)C(C#N)=C(C)Nc1ccnc(-c2ccncc2)n1
203 to 205 °C

Consider next the molecule COc1ccc(CNc2cc[nH]n2)cc1OC1CCCC1 in the same way.
106 to 110 °C

* * *

REPORTED METRIC: melting point

Quick one: melting point for Cc1sc([Si](C)(C)C)cc1C1=C(c2cc([Si](C)(C)C)sc2C)C(F)(F)C(F)(F)C1(F)F ?
91.4 °C

Record: Nc1c(-c2ccccc2)sc2ccccc12
110 to 112 °C

Also check Cc1ccc(C(=O)Nc2c(NC(=O)CN3CCCC3)ccc3c2C(=O)c2ccccc2C3=O)cc1
193 to 194 °C

How about Cc1nc(C)c(Cl)c(NCc2nccc(SCCCCSCCn3c([N+](=O)[O-])cnc3C)c2C)n1 ?
142 to 144 °C

Okay, and O=C(NCCCc1ccncc1)N(CCCc1ccccc1)C(c1ccccc1)c1ccccc1 ?
123 to 125 °C

* * *

Give melting point for every item shown.

State the recorded melting point for this entry: Fc1cc(Cl)c(OC(F)F)cc1-c1ncnc(C(F)F)c1Cl
56 to 57 °C

Entry to check: Cc1ccc(S(=O)(=O)OCC2Cc3c(Cl)cc4c(c3O2)CCC4)cc1 (centres undefined)
95 to 97 °C

Would you mind doing CCCCCCCCCCNC(=O)[C@@H]1C[C@H]1c1ccc([N+](=O)[O-])cc1 (relative stereo) as well?
127 to 129 °C

Moving on to the next compound: CCCNC(=O)c1ccc(C)c(-c2nc(NCCN(C)C(=O)OC(C)(C)C)nc3c2ccc(=O)n3-c2c(F)cccc2F)c1
115 to 118 °C

* * *

Provide the recorded melting point for the entries that follow.

I have this compound here, NC(=O)c1c(N)sc2c1CCC1(C2)OCCO1 , and I need its recorded melting point.
157 to 158 °C

Next: COc1ccc2cccc(N3CCN(CCCCOc4ccc5c(n4)NC(=O)NCC5)CC3)c2c1
155 to 158 °C

Ok, now CN1C(=O)S/C(=C\c2cn(-c3ccccc3)nc2OCc2ccccc2)C1=O
226 to 227 °C

Would you kindly repeat that for O=C(Nc1cc(-c2nc3ccccc3[nH]2)ccn1)c1ccccc1 ?
145 to 146 °C

Follow-up entry: Cc1cccc(COc2nn3c(-c4ccccc4)nnc3c3ccccc23)n1
186 to 187 °C

Queued: CC(=O)C1(Nc2ccccc2)CCN(CCc2ccccc2)CC1
101 °C

Next compound up: COc1ccc(-c2cc3nc(N4CCOCC4)c4ccccc4c3nn2)cc1
218 to 220 °C

Can you check CCn1c(=O)c2[nH]c(/C=C/c3cc(F)cc(F)c3)nc2n(CC)c1=O next?
> 280 °C

Continue with Nc1nccc(-c2c[nH]c3nccc(OCc4ccccc4)c23)n1
> 210 °C

Here is the next compound: NC(=O)N1C(=O)/C(=C(\O)c2cccs2)c2cc(F)c(Cl)cc21
239 to 241 °C

Follow-up entry: CCNC(=O)CCC(=O)c1ccc(NS(C)(=O)=O)cc1
210 to 213 °C

Param item: COc1cc(C)c(O)c2ccccc12
102 to 103 °C

Would you kindly repeat that for Cc1cc2c(c(C3=NNC(=O)CC3)c1)OCC(=O)N2 ?
266 to 270 °C

Could you do the same for N#Cc1ccccc1-c1ccc2cc(CBr)ccc2c1 , please?
171 to 172 °C

Can you check Cc1cc(CCCCCOc2c(C)cc(-c3nc(C)no3)cc2C)on1 next?
54 to 56 °C

Entry to check: O=C(O)CCCCc1cccc2cncn12
161 to 163 °C

Subsequent entry: O=C(NC(Cc1ccc(OCc2ccc(C(F)(F)F)cc2)cc1)C(=O)O)c1cn2ccc(-c3ccc(Cl)cc3)cc2n1 (stereo unspecified)
263 °C

Also check COc1cc2ccccc2cc1NC(=O)N1CCN(c2cc(F)cc(F)c2)CC1
160 to 161 °C

What about CC1(C)Oc2ccc(S(=O)(=O)C(F)(F)F)cc2[C@@H](N2Cc3ccccc3C2=O)[C@@H]1O (relative stereo) ?
279 to 281 °C

Follow-up entry: CN(C)CCn1c(=O)sc2ccc(Cl)cc21
62.5 to 65.5 °C

Cool, now Cc1oc(-c2ccccc2)nc1Cc1cc2cc(C=O)ccc2o1
116 to 118 °C
